Test system: Leishmania donovani MHOM-ET-67/L82 strain
METHOD: Antiprotozoal activity against L. donovani
Type: cell-based
EXPERIMENTAL_PARAMETERS: read-out: IC50 L. donovani

- SMILES_NOTATION: "CCCCCCCCCCCCCCCCOP(=O)([O-])OCC[N+](C)(C)C"
  TARGET_ENTITY: "Leishmania donovani MHOM-ET-67/L82 strain"
  IC50: "340 nM"

====

METHOD: Cytotoxicity
Format: cell-based
EXPERIMENTAL_PARAMETERS: rat
pIC50: −log10 of the molar value.

- SMILES_NOTATION: "COc1cc([C@@H]2c3cc4c(cc3[C@H](O)[C@H]3COC(=O)[C@H]23)OCO4)cc(OC)c1OC"
  pIC50: 8.14
